Test system: NCI/ADR-RES
protocol notes: NCI tumour cell line growth inhibition, 48 h
Activity calls are given as the source filed them. No stated cut-off is given here; in the data, active = GI50 up to about 1.1 µM and inactive = higher.
readout name: GI50

Before answering, review these 2 worked examples.
1. CCCCCCCCCCCCCC(=O)N(CCCCCCCCC)CC(O)C(O)C(OC1OC(CO)C(O)C(O)C1O)C(O)CO (stereo not drawn) ... 18.8 µM (inactive)
2. O=c1[nH]c2cc([N+](=O)[O-])c(N(CCO)CCO)c([N+](=O)[O-])c2[nH]1 ... 31.8 µM (inactive)

If you can, please state the reported GI50 value of O=C1c2ccccc2-n2c1nc1ccc(Cl)cc1c2=O .
> 100 µM (inactive)

====

Tested on: NCI-H23
protocol notes: NCI tumour cell line growth inhibition, 48 h
The source made the active and inactive calls. No stated cut-off is given here; in the data, active = GI50 up to about 1.1 µM and inactive = higher.
readout name: GI50

# example entries with known answers
1) CCOC(=O)C12CCC(c3c(C)cccc3C)(O1)C(C(=O)OC)=C2C(=O)OC (stereo not drawn) ... 3.4 µM (inactive)
2) COC(=O)c1c(C(=O)OC)c2cc(C(=O)c3ccccc3)ccn2c1Cl ... 23.1 µM (inactive)
3) N#C/C(=C\c1ccc2ccccc2c1)C(=O)c1ccccc1 ... > 57.4 µM (inactive)
4) COc1ccccc1N1C(=O)/C(=C\c2ccccc2)SC1c1cc(OC)c(OC)c(OC)c1 (stereo not drawn) ... 43.9 µM (inactive)

Looking for the measured GI50 of CC1=NN(c2nc(N)nc(/C(C#N)=C\c3cccc([N+](=O)[O-])c3)n2)C(C)(C)C1 , can you help?
10.1 µM (inactive)

Okay, and CCc1ncnc2cc(OCC3CO3)c(OC)cc12 (stereo not drawn) ?
2.61 µM (inactive)

What about CN(O)C(=O)c1cccc(Cl)c1 ?
> 100 µM (inactive)

Follow-up entry: CC(=O)N/C(=C\c1ccc(/C=C(\NC(C)=O)C2=NC3C(=O)c4ccccc4C(=O)C3N2)cc1)C1=NC2C(=O)c3ccccc3C(=O)C2N1 (stereo not drawn)
26.7 µM (inactive)

====

System: A549
protocol notes: NCI tumour cell line growth inhibition, 48 h
Activity calls are given as the source filed them. Cut-off read from the data, not from the text of the source: active = GI50 up to about 1.1 µM and inactive = higher.
As shown below, each of these compounds has a reported GI50 value.

1) N#Cc1c(C#N)c(SSc2c(C#N)c(C#N)c(N)n2-c2ccccc2)n(-c2ccccc2)c1N ... 36 µM (inactive)

Given the compound Nc1c(-c2cccc3ccccc23)c2ccc([N+](=O)[O-])cc2c(=O)n1-c1nc2ccccc2s1 , what is its reported GI50?
3.32 µM (inactive)

====

System: SR
protocol notes: NCI tumour cell line growth inhibition, 48 h
Calls of active or inactive are those of the source. Rule as the data show it: active = GI50 up to about 1.1 µM and inactive = higher.
Response enum: true (1) for active, false (0) for inactive

Example entries begin here.
1. NC1C/C(=N\O)c2c(Cl)sc(Cl)c21 (stereo not drawn) ... false (0)
2. O=C1/C(=C/c2ccc(Cl)cc2)CNC/C1=C\c1ccc(Cl)cc1 ... true (1)
3. COc1ccc(-c2cnoc2-c2ccc(OC)c(OC)c2)cc1OC ... true (1)
4. Cc1c(C)c([N+](=O)[O-])c2c(c1N)C(=O)c1ccccc1C2=O ... false (0)

How did this test come out for CC(C)(C)[C@H]1CCC2(OCCO2)[C@](O)(CCCO)C1 ?
false (0)

// repeat for COc1ccccc1N1C(=O)/C(=C\c2ccccc2)SC1c1cc(OC)c(OC)c(OC)c1 (stereo not drawn) and report
false (0)

====

Tested on: SNB-19
protocol notes: NCI tumour cell line growth inhibition, 48 h
Activity calls are given as the source filed them. Rule as the data show it: active = GI50 up to about 1.1 µM and inactive = higher.
readout name: GI50

Here's what some known entries look like.
1. CC1(C)OC2CN(C(=O)OCc3ccccc3)C(CO)C2O1 (stereo not drawn) ... > 100 µM (inactive)
2. O=C1c2c(O)cccc2C(C(=O)CCCCCC(=O)C2c3cccc(O)c3C(=O)c3c(O)cccc32)c2cccc(O)c21 ... 0.973 µM (active)
3. COc1c(C)cc(O)cc1C=O ... > 100 µM (inactive)

I'd like to know its GI50. The compound in question is NC(=O)Nc1cc(O)ccc1/N=N/c1ccc(S(=O)(=O)Nc2ccccn2)cc1
> 100 µM (inactive)

Now give it for N#CCc1nc(-c2cc3ccc(O)cc3oc2=O)cs1 too.
> 100 µM (inactive)

====

System: SNB-75
protocol notes: NCI tumour cell line growth inhibition, 48 h
The source made the active and inactive calls. No stated cut-off is given here; in the data, active = GI50 up to about 1.1 µM and inactive = higher.
Recorded GI50 values for a group of compounds are listed next.

1) O=C1Nc2ccc(S(=O)(=O)N(CCO)CCO)cc2/C1=C1/Nc2ccccc2C1=O ... 2.82 µM (inactive)

Which measured GI50 value corresponds to CCO/C=N/C1=C(C#N)C(c2ccc(Cl)cc2)c2c(-c3ccccc3)nn(-c3ccccc3)c2O1 (stereo unspecified) ?
6.81 µM (inactive)

Please do the same for COc1ccc([C@@H]2CC(=O)NCCCNCCCCNCCCN2)cc1 as well.
> 100 µM (inactive)

Continue with O=c1ncccn1C1OC(CO)C(O)C1O (stereo unspecified)
> 100 µM (inactive)

Now consider CCc1cc(C(=O)OC)cn1C(=N)c1ccc(Cl)cc1 and answer again.
87.5 µM (inactive)

Next compound up: SCCCSCCSCCCSCCS
45.6 µM (inactive)

====

System: OVCAR-4
protocol notes: NCI tumour cell line growth inhibition, 48 h
Calls of active or inactive are those of the source. No stated cut-off is given here; in the data, active = GI50 up to about 1.1 µM and inactive = higher.
Could you please pick one outcome from this set? TRUE = active, FALSE = inactive

Check out these entries, answers already filled in.
1. O=C1c2ccccc2-n2c1nc1ccc(Cl)cc1c2=O ... FALSE
2. COc1cc(OC)c(SSCCCCS(=O)O)c(OC)c1 ... FALSE
3. O=C(O)CN1CCCC(Cc2c[nH]c3ccccc23)C1 (stereo unspecified) ... FALSE

Given COc1ccc(N2C(=O)C3ON(C(C(N)=O)c4ccccc4)C(c4ccc(-c5ccccc5)cc4)C3C2=O)cc1 (stereo unspecified) , state the outcome it received in this test.
FALSE

Can you check O=C1c2cc([N+](=O)[O-])sc2C(=O)c2ccsc21 next?
TRUE

Now try CC(NC(NC(C)C12CC3CC(CC(C3)C1)C2)=C(C(Cl)=C(Cl)Cl)[N+](=O)[O-])C12CC3CC(CC(C3)C1)C2 (stereo unspecified) .
FALSE

====

System: SF-539
protocol notes: NCI tumour cell line growth inhibition, 48 h
Activity calls are given as the source filed them. No stated cut-off is given here; in the data, active = GI50 up to about 1.1 µM and inactive = higher.
Form entry, call: pick from active, inactive

1) Cc1ccc(C(CC(=O)C(C)(C)CN2CCCCC2)SCCS(=O)(=O)O)cc1 (stereo not drawn) ... inactive

Test call, this compound: COc1c(C)cc(O)cc1C=O
inactive

Lookup CC(C)(C)[C@H]1CCC2(OCCO2)[C@](O)(CCCO)C1
inactive

How about this compound: CNc1c2c(c3nc4ccccc4c4c3c1N=C4)NCCC2=O [PLAKINIDINE A]
inactive

Moving on to C/C(=N\N=C(\N)SB(F)F)c1ccc2ccccc2c1
inactive

====

Reported GI50 values follow for various compounds
System: EKVX
protocol notes: NCI tumour cell line growth inhibition, 48 h
The source made the active and inactive calls. Cut-off read from the data, not from the text of the source: active = GI50 up to about 1.1 µM and inactive = higher.

Consider the worked cases shown below.
1. CSC1=N/C(=C\c2ccc(Cl)cc2)C(=O)N1CN1CCOCC1 ... 53.5 µM (inactive)
2. CC1=C(O)/C(=C/C(C)CCC/C(C)=C/C=C/C(C)CCCc2ccoc2)OC1=O (stereo not drawn) ... 25 µM (inactive)

What does the record list as GI50 for O=c1oc2ccccc2cc1P(=O)(O)O ?
> 100 µM (inactive)

====

System: A549
protocol notes: NCI tumour cell line growth inhibition, 48 h
The source made the active and inactive calls. Cut-off read from the data, not from the text of the source: active = GI50 up to about 1.1 µM and inactive = higher.
readout name: GI50

Before answering, review these 3 worked examples.
1) O=C(O)c1ccc(C2C3C=CC(C3)C2[N+](=O)[O-])cc1 (centres undefined) ... > 100 µM (inactive)
2) COc1ccc(COCC[C@H](C)OC2OC(CO[Si](C)(C)C(C)(C)C)C(O)C(O)C2O)cc1 (some centres undefined) ... > 100 µM (inactive)
3) c1ccc2c(c1)CCN2CCc1c[nH]c2ccccc12 ... > 10 µM (inactive)

// GI50 lookup, key: O=[N+]([O-])c1cccc(C2=NOC(C3CCCCC3)C2)c1 (centres undefined)
> 100 µM (inactive)

Repeat for the following compound: O=c1[nH]c2cc([N+](=O)[O-])c(N(CCO)CCO)c([N+](=O)[O-])c2[nH]1
35.2 µM (inactive)

====

Test system: SR
protocol notes: NCI tumour cell line growth inhibition, 48 h
Calls of active or inactive are those of the source. Rule as the data show it: active = GI50 up to about 1.1 µM and inactive = higher.
Thanks in advance; please answer with one of these: T (active), F (inactive)

Called result for COc1nc(OC)nc(-c2cccc(F)c2)n1
F

Next record, please: O=C1C2c3[nH]c4ccccc4c3C3CCCCC3C2C(=O)N1c1ccccc1 (configuration not stated)
F

Moving on to the next molecule: O=c1oc2ccccc2cc1P(=O)(O)O
F

Param item: COc1ccc(C2c3c[nH]nc3CC3CCCCC32)cc1 (configuration not stated)
F

Try this molecule too: COC(=O)c1ccc(-n2c(C)nc(=O)c(-c3ccccc3)c2C)cc1
F

Now consider Cc1nc2ccccc2n1COC(Cn1ccnc1)c1ccc(Cl)cc1Cl (configuration not stated) and answer again.
F

And what about the molecule CC1(C)CC2(S(=O)(=O)c3ccccc3)ON1CC2S(=O)(=O)c1ccccc1 (configuration not stated) ?
F

Now consider O=C1/C(=C/C=C/c2ccccc2)N=C(c2ccccc2)N1C1Nc2cc3c(cc2S1)NC(N1C(=O)/C(=C/C=C/c2ccccc2)N=C1c1ccccc1)S3 (configuration not stated) .
T

Now try CCCCCCCCCCCCCC(=O)N(CCCCCCCCC)CC(O)C(O)C(OC1OC(CO)C(O)C(O)C1O)C(O)CO (configuration not stated) .
F

These entries and their values trace back to ChEMBL document CHEMBL1201862.
